- Tested on: LC-2-ad
- assay: relative viability (nuclei count vs DMSO), 5 days (fraction); higher = more cells survive
- condition.context: first compound 0.1581 µM
Reported relative viability values for the following compounds.
Format: numeric value only, no unit, no commentary.

Worked examples, 3 compounds total:
compound	obs.value
COc1cc2nccc(Oc3ccc(NC(=O)Nc4cc(C)on4)c(Cl)c3)c2cc1OC [Tivozanib] + CC(=O)Nc1cccc(-n2c(=O)n(C3CC3)c(=O)c3c(Nc4ccc(I)cc4F)n(C)c(=O)c(C)c32)c1 [Trametinib] (partner 0.02 µM)	0.601
COc1cc2nccc(Oc3ccc(NC(=O)Nc4cc(C)on4)c(Cl)c3)c2cc1OC [Tivozanib] + Nc1nc2[nH]cc(CCc3ccc(C(=O)N[C@@H](CCC(=O)O)C(=O)O)cc3)c2c(=O)[nH]1 [Pemetrexed] (partner 0.2 µM)	0.286
COc1cc2nccc(Oc3ccc(NC(=O)Nc4cc(C)on4)c(Cl)c3)c2cc1OC [Tivozanib] + COc1cc2c(Oc3ccc(NC(=O)C4(C(=O)Nc5ccc(F)cc5)CC4)cc3F)ccnc2cc1OCCCN1CCOCC1 [Foretinib] (partner 0.25 µM)	0.972

Record Nc1ccn([C@@H]2O[C@H](CO)[C@@H](O)[C@@H]2O)c(=O)n1 [Cytarabine] + CCNC(=O)c1noc(-c2cc(C(C)C)c(O)cc2O)c1-c1ccc(CN2CCOCC2)cc1 [Luminespib] (partner 0.01 µM) : what is its relative viability with LC-2-ad?
0.636

Request: relative viability, test system LC-2-ad, entry Nc1ccn([C@@H]2O[C@H](CO)[C@@H](O)[C@@H]2O)c(=O)n1 [Cytarabine] + CS(=O)(=O)N1CCN(Cc2cc3nc(-c4cccc5[nH]ncc45)nc(N4CCOCC4)c3s2)CC1 [Pictilisib] (partner 1 µM)
0.212

* * *

- System: SW 900
- assay: relative viability (nuclei count vs DMSO), 5 days (fraction); higher = more cells survive
- condition.context: first compound 0.05 µM
experimental.endpoint: relative viability
# output: bare number, no unit

Which relative viability reading was recorded for the compound Nc1ccn([C@@H]2O[C@H](CO)[C@@H](O)[C@@H]2O)c(=O)n1 [Cytarabine] + O=C(CCCCCCC(=O)Nc1ccccc1)NO [Vorinostat] (partner 1 µM) ?
0.376

# query: relative viability of entry Nc1ccn([C@@H]2O[C@H](CO)[C@@H](O)[C@@H]2O)c(=O)n1 [Cytarabine] + CCNC(=O)c1noc(-c2cc(C(C)C)c(O)cc2O)c1-c1ccc(CN2CCOCC2)cc1 [Luminespib] (partner 0.01 µM)
0.186

For Nc1ccn([C@@H]2O[C@H](CO)[C@@H](O)[C@@H]2O)c(=O)n1 [Cytarabine] + COc1cccc2cc(-c3nc([C@H]4CC[C@H](C(=O)O)CC4)n4ncnc(N)c34)[nH]c12 [OSI-027] (partner 0.5 µM) , what is its reported relative viability?
0.335

Consider the compound Nc1ccn([C@@H]2O[C@H](CO)[C@@H](O)[C@@H]2O)c(=O)n1 [Cytarabine] + CC(=O)c1c(C)c2cnc(Nc3ccc(N4CCNCC4)cn3)nc2n(C2CCCC2)c1=O [Palbociclib] (partner 0.5 µM) and give its measured relative viability.
0.451

* * *

- Tested on: SW 1573
- assay: relative viability (nuclei count vs DMSO), 5 days (fraction); higher = more cells survive
- condition.context: first compound 0.8 µM
experimental.endpoint: relative viability
Reply: number alone, nothing else.

compound	target	relative viability
O=c1[nH]c2ccccc2n1C1CCN(CCCC(c2ccc(F)cc2)c2ccc(F)cc2)CC1 [Pimozide] + Cc1nc(Nc2ncc(C(=O)Nc3c(C)cccc3Cl)s2)cc(N2CCN(CCO)CC2)n1 [Dasatinib] (partner 0.075 µM)	SW 1573	0.5
Cc1cnc(-c2cnc(NCCNc3ccc(C#N)cn3)nc2-c2ccc(Cl)cc2Cl)[nH]1 + O=C(c1cc(Cc2n[nH]c(=O)c3ccccc23)ccc1F)N1CCN(C(=O)C2CC2)CC1 [Olaparib] (partner 8 µM)	SW 1573	0.494

Okay, next one:
Can you look up relative viability on SW 1573 for O=c1[nH]c2ccccc2n1C1CCN(CCCC(c2ccc(F)cc2)c2ccc(F)cc2)CC1 [Pimozide] + Nc1ncn([C@H]2C[C@H](O)[C@@H](CO)O2)c(=O)n1 [Decitabine] (partner 2 µM) ?
0.499
